Tested on: islet-infiltrating CD8^+ T cells of NOD mice
protocol_description: IFN-γ recall assay of islet-infiltrating cells against peptide-pulsed K^d+ L cells
Assay type: cell-based, mouse
study_conditions: 12-16-week-old NOD females; positive / tested
quantity_kind: positive mice (IFN-γ^+CD8^+ cells >1.8%)

Example results:
substance: IGRP 206-214: positive control peptide in NOD recall assay (VYLKTNVFL; UniProt Q9Z186 206-214, looked up, fragment) [reference compound]
value_reported: 13/13

substance: VFSCLNTAL [Ucn3 32-40, murine Ucn3 peptide predicted to be restricted by K^d]
value_reported: 8/12

substance: LYDESCSSTL [Pcsk2 341-350, murine Pcsk2 peptide predicted to be restricted by K^d]
value_reported: 6/8

substance: RYLEHVQAVI [Pcsk2 501-510, murine Pcsk2 peptide predicted to be restricted by K^d]
value_reported: 5/8

Now, please, on to the next substance.
Could you tell me which positive mice (IFN-γ^+CD8^+ cells >1.8%) is on file for TYFLLPLLL [Ucn3 5-13, murine Ucn3 peptide predicted to be restricted by K^d] ?
8/12
